Data credit: ChEMBL document CHEMBL4229379

Answer each item with its documented MIC.
test system: Staphylococcus epidermidis; experiment: Antibacterial activity against methicillin-sensitive Staphylococcus epidermidis 12-6 after 18 hrs by CLSI broth microdilution method; format: functional; conditions: 12-6, 18 h
Answers are plain numbers, in µg/mL.

Batch: MIC for all items listed.
1. CN1CCN(C(=N)c2ccc3cc(-c4ccc(-c5cc6ccc(C(=N)N7CCN(C)CC7)cc6[nH]5)cc4)[nH]c3c2)CC1
2. CN(C)CCCNC(=N)c1ccc2cc(-c3ccc(-c4cc5ccc(C(=N)NCCCN(C)C)cc5[nH]4)cc3)[nH]c2c1
3. c1cc2cc(-c3ccc(-c4cc5ccc(C6=NCCCN6)cc5[nH]4)cc3)[nH]c2cc1C1=NCCCN1
4. CCC(CC)NC(=N)c1ccc2cc(-c3ccc(-c4cc5ccc(C(=N)NC(CC)CC)cc5[nH]4)cc3)[nH]c2c1
5. N=C(c1ccc2cc(-c3ccc(-c4cc5ccc(C(=N)N6CC=CC6)cc5[nH]4)cc3)[nH]c2c1)N1CC=CC1

Response given:
1. 2
2. 4
3. 0.25
4. 0.5
5. 2

====

test system: Escherichia coli; experiment: Antibacterial activity against extended-spectrum beta-lactamase deficient Escherichia coli 1515 after 18 hrs by CLSI broth microdilution method; type: functional; details: Escherichia coli, 1515, 18 h
MIC less than 4 µg/mL is yes; MIC greater than or equal to 4 µg/mL is no.

N=C(c1ccc2cc(-c3ccc(-c4cc5ccc(C(=N)N6CC=CC6)cc5[nH]4)cc3)[nH]c2c1)N1CC=CC1	no

Challenge: Problem: For the compound CCC(CC)NC(=N)c1ccc2cc(-c3ccc(-c4cc5ccc(C(=N)NC(CC)CC)cc5[nH]4)cc3)[nH]c2c1 , is MIC under 4 µg/mL?
Response given: no

Challenge: Lab note: MIC threshold 4 µg/mL. Does this compound come in strictly under it? N=C(c1ccc2cc(-c3ccc(-c4cc5ccc(C(=N)N6CC=CCC6)cc5[nH]4)cc3)[nH]c2c1)N1CC=CCC1
Response given: no

Challenge: Identify whether the compound CN(C)C(=N)c1ccc2cc(-c3ccc4cc(-c5cc6ccc(C(=N)N(C)C)cc6[nH]5)ccc4c3)[nH]c2c1 records MIC below 4 µg/mL.
Response given: no

Challenge: MIC under 4 µg/mL? Item: CN(C)C(=N)c1ccc2cc(-c3ccc(-c4cc5ccc(C(=N)N(C)C)cc5[nH]4)cc3)[nH]c2c1
Response given: yes

Challenge: Given CN(C)CCCNC(=N)c1ccc2cc(-c3ccc(-c4cc5ccc(C(=N)NCCCN(C)C)cc5[nH]4)cc3)[nH]c2c1 , is recorded MIC strictly lower than 4 µg/mL?
Response given: no

Challenge: A record lists CCC(C)NC(=N)c1ccc2cc(-c3cncc(-c4cc5ccc(C(=N)NC(C)CC)cc5[nH]4)c3)[nH]c2c1 (stereo unspecified) . Is its MIC below 4 µg/mL?
Response given: no

Challenge: Dear reviewer, please state whether COCCNC(=N)c1ccc2cc(-c3cncc(-c4cc5ccc(C(=N)NCCOC)cc5[nH]4)c3)[nH]c2c1 has MIC strictly beneath 4 µg/mL.
Response given: no

Challenge: Lab note: MIC threshold 4 µg/mL. Does this compound come in strictly under it? CNC(=N)c1ccc2cc(-c3ccc(-c4cc5ccc(C(=N)NC)cc5[nH]4)cc3)[nH]c2c1
Response given: no

Challenge: Find out if reported MIC for CNC(=N)c1ccc2cc(-c3cncc(-c4cc5ccc(C(=N)NC)cc5[nH]4)c3)[nH]c2c1 is less than 4 µg/mL
Response given: no

Challenge: Quick check: does CCN(C)C(=N)c1ccc2cc(-c3ccc(-c4cc5ccc(C(=N)N(C)CC)cc5[nH]4)cc3)[nH]c2c1 have MIC under 4 µg/mL?
Response given: yes

Challenge: Field: below-cutoff. Rule: recorded MIC strictly less than 4 µg/mL. Subject: CCNC(=N)c1ccc2cc(-c3ccc(-c4cc5ccc(C(=N)NCC)cc5[nH]4)cc3)[nH]c2c1
Response given: no

Challenge: Quick check: does C[C@H]1COc2c(N3CCN(C)CC3)c(F)cc3c(=O)c(C(=O)O)cn1c23.C[C@H]1COc2c(N3CCN(C)CC3)c(F)cc3c(=O)c(C(=O)O)cn1c23.O have MIC under 4 µg/mL?
Response given: yes

====

system: Escherichia coli; assay: Antibacterial activity against extended-spectrum beta-lactamase deficient Escherichia coli 1515 after 18 hrs by CLSI broth microdilution method; format: functional; settings: Escherichia coli, 1515, 18 h
value type: MIC (µg/mL)
Numbers only, in µg/mL.

N=C(c1ccc2cc(-c3ccc(-c4cc5ccc(C(=N)N6CCCC6)cc5[nH]4)cc3)[nH]c2c1)N1CCCC1	4
COCCNC(=N)c1ccc2cc(-c3ccc(-c4cc5ccc(C(=N)NCCOC)cc5[nH]4)cc3)[nH]c2c1	8
c1cc2cc(-c3ccc(-c4cc5ccc(C6=NCCCN6)cc5[nH]4)cc3)[nH]c2cc1C1=NCCCN1	8

Please look at the items below and tell me MIC for each one, in order.
1. N=C(c1ccc2cc(-c3ccc(-c4cc5ccc(C(=N)N6CCOCC6)cc5[nH]4)cc3)[nH]c2c1)N1CCOCC1
2. N=C(c1ccc2cc(-c3ccc(-c4cc5ccc(C(=N)N6CCC(N7CCCC7)CC6)cc5[nH]4)cc3)[nH]c2c1)N1CCC(N2CCCC2)CC1

Response given:
[4, 16]

Batch: MIC for all items listed.
1. CN1CCN(C(=N)c2ccc3cc(-c4ccc(-c5cc6ccc(C(=N)N7CCN(C)CC7)cc6[nH]5)cc4)[nH]c3c2)CC1
2. CN(C)CCNC(=N)c1ccc2cc(-c3ccc(-c4cc5ccc(C(=N)NCCN(C)C)cc5[nH]4)cc3)[nH]c2c1
3. CN(C)C(=N)c1ccc2cc(-c3cncc(-c4cc5ccc(C(=N)N(C)C)cc5[nH]4)c3)[nH]c2c1
4. CN1CCC2(CC1)CCN(C(=N)c1ccc3cc(-c4ccc(-c5cc6ccc(C(=N)N7CCC8(CCN(C)CC8)C7)cc6[nH]5)cc4)[nH]c3c1)C2
5. CN(C)C(=N)c1ccc2cc(-c3cccc(-c4cc5ccc(C(=N)N(C)C)cc5[nH]4)c3)[nH]c2c1

Response given:
1. 8
2. 8
3. 2
4. 8
5. 64

====

Provide the recorded CC50 at 48 h for the entries that follow.
assay: Cytotoxicity against HEK293T cells assessed as reduction in cell viability after 48 hrs by MTS assay; type: cell-based, HEK-293T; settings: human
Answers are plain numbers, in µg/mL.

CCC(C)NC(=N)c1ccc2cc(-c3cncc(-c4cc5ccc(C(=N)NC(C)CC)cc5[nH]4)c3)[nH]c2c1 (stereo not given)	22.8

# batch size: 7; output CC50 at 48 h per entry
1. N=C(c1ccc2cc(-c3ccc(-c4cc5ccc(C(=N)N6CCC6)cc5[nH]4)cc3)[nH]c2c1)N1CCC1
2. CN1CCN(C(=N)c2ccc3cc(-c4ccc(-c5cc6ccc(C(=N)N7CCN(C)CC7)cc6[nH]5)cc4)[nH]c3c2)CC1
3. CN1CCC2(CC1)CCN(C(=N)c1ccc3cc(-c4ccc(-c5cc6ccc(C(=N)N7CCC8(CCN(C)CC8)C7)cc6[nH]5)cc4)[nH]c3c1)C2
4. CN(C)C(=N)c1ccc2cc(-c3cccc(-c4cc5ccc(C(=N)N(C)C)cc5[nH]4)c3)[nH]c2c1
5. c1cc2cc(-c3ccc(-c4cc5ccc(C6=NCCCN6)cc5[nH]4)cc3)[nH]c2cc1C1=NCCCN1
6. CC(C)NC(=N)c1ccc2cc(-c3cncc(-c4cc5ccc(C(=N)NC(C)C)cc5[nH]4)c3)[nH]c2c1
7. CN(C)C(=N)c1ccc2cc(-c3cnc(-c4cc5ccc(C(=N)N(C)C)cc5[nH]4)s3)[nH]c2c1

Response given:
1: 2.84; 2: 18.9; 3: 28.4; 4: 52.2; 5: 4.33; 6: 26.5; 7: 2.01

I need CC50 at 48 h for every entry listed below, if you could help.
1. CN(C)C(=N)c1ccc2cc(-c3ccc(-c4cc5ccc(C(=N)N(C)C)cc5[nH]4)cc3)[nH]c2c1
2. N=C(c1ccc2cc(-c3ccc(-c4cc5ccc(C(=N)N6CC=CCC6)cc5[nH]4)cc3)[nH]c2c1)N1CC=CCC1
3. COCCNC(=N)c1ccc2cc(-c3ccc(-c4cc5ccc(C(=N)NCCOC)cc5[nH]4)cc3)[nH]c2c1
4. CCC(C)NC(=N)c1ccc2cc(-c3ccc(-c4cc5ccc(C(=N)NC(C)CC)cc5[nH]4)cc3)[nH]c2c1 (stereo not given)
5. CN(C)C(=N)c1ccc2cc(-c3ccc4cc(-c5cc6ccc(C(=N)N(C)C)cc6[nH]5)ccc4c3)[nH]c2c1
6. CN(C)C(=N)c1ccc2cc(-c3ccc4ccc(-c5cc6ccc(C(=N)N(C)C)cc6[nH]5)cc4c3)[nH]c2c1

Response given:
[4.13, 13.3, 3.95, 15.4, 6.2, 13.6]

Would you mind listing CC50 at 48 h for each of the following compounds?
1. N=C(c1ccc2cc(-c3ccc(-c4cc5ccc(C(=N)N6CCCC6)cc5[nH]4)cc3)[nH]c2c1)N1CCCC1
2. CN(C)CCNC(=N)c1ccc2cc(-c3ccc(-c4cc5ccc(C(=N)NCCN(C)C)cc5[nH]4)cc3)[nH]c2c1

Response given:
4.15
31.2

Look up CC50 at 48 h for the entries below, preserving their order.
1. CCC(CC)NC(=N)c1ccc2cc(-c3ccc(-c4cc5ccc(C(=N)NC(CC)CC)cc5[nH]4)cc3)[nH]c2c1
2. CCNC(=N)c1ccc2cc(-c3ccc(-c4cc5ccc(C(=N)NCC)cc5[nH]4)cc3)[nH]c2c1
3. CN(C)C(=N)c1ccc2cc(-c3ccc(-c4cc5ccc(C(=N)N(C)C)cc5[nH]4)nc3)[nH]c2c1
4. CN(C)CCCNC(=N)c1ccc2cc(-c3ccc(-c4cc5ccc(C(=N)NCCCN(C)C)cc5[nH]4)cc3)[nH]c2c1

Response given:
[3.42, 4.1, 11.7, 27.7]

Each of the following entries comes with a recorded value; kindly state CC50 at 48 h for each.
1. CN(C)C(=N)c1ccc2cc(-c3cnc(-c4cc5ccc(C(=N)N(C)C)cc5[nH]4)cn3)[nH]c2c1
2. CNC(=N)c1ccc2cc(-c3ccc(-c4cc5ccc(C(=N)NC)cc5[nH]4)cc3)[nH]c2c1
3. N=C(c1ccc2cc(-c3ccc(-c4cc5ccc(C(=N)N6CCC(N7CCCC7)CC6)cc5[nH]4)cc3)[nH]c2c1)N1CCC(N2CCCC2)CC1
4. CN(C)C(=N)c1ccc2cc(-c3cncc(-c4cc5ccc(C(=N)N(C)C)cc5[nH]4)c3)[nH]c2c1
5. CC(C)NC(=N)c1ccc2cc(-c3ccc(-c4cc5ccc(C(=N)NC(C)C)cc5[nH]4)cc3)[nH]c2c1

Response given:
13
28
50
1.75
12.3

Provide CC50 at 48 h values for the following items, in order.
1. N=C(c1ccc2cc(-c3ccc(-c4cc5ccc(C(=N)N6CCOCC6)cc5[nH]4)cc3)[nH]c2c1)N1CCOCC1
2. N=C(c1ccc2cc(-c3ccc(-c4cc5ccc(C(=N)N6CC=CC6)cc5[nH]4)cc3)[nH]c2c1)N1CC=CC1
3. COCCNC(=N)c1ccc2cc(-c3cncc(-c4cc5ccc(C(=N)NCCOC)cc5[nH]4)c3)[nH]c2c1

Response given:
16.4
12.4
28

Lab note: CCN(C)C(=N)c1ccc2cc(-c3ccc(-c4cc5ccc(C(=N)N(C)CC)cc5[nH]4)cc3)[nH]c2c1 gave CC50 at 48 h of 17
